Source: PubChem BioAssay

# assayComment: P. aeruginosa biofilm formation inhibitors, primary screen, strain PAO1, LB-PBS medium, absorbance 600 nm (AID 1176); also: test concentration not given here
# conditionContext: P. aeruginosa PAO1 growth/biofilm, A600, 12 h; higher = more signal
Give true (1) when the value for z-score is at least 0.8. Give false (0) when it is less.

- compound: "COCCOC(=O)N1C(=O)[C@@]2(c3cc(C#CCCO)ccc31)[C@H](C(N)=O)[C@H]1C(=O)O[C@H](c3ccccc3)[C@H](c3ccccc3)N1[C@@H]2c1ccc(OCCO)cc1"
  categoryLabel: "true (1)"
- compound: "CC(=O)NCCCC[C@@H]1NC(=O)[C@@H]2C[C@H](C(=O)NCCCCCCN)[C@H](c3cccc(OCCO)c3)N2C1=O"
  categoryLabel: "false (0)"
- compound: "NCCCCCNC(=O)[C@H]1C[C@H]2C(=O)N[C@@H](Cc3ccccc3)C(=O)N2[C@H]1c1ccc(O)cc1"
  categoryLabel: "false (0)"
- compound: "CCC(CC)C(O)C1C=CC2C(=O)N(c3ccccc3)C(=O)C2N1Nc1ccc([N+](=O)[O-])cc1 (configuration not stated)"
  categoryLabel: "true (1)"
- compound: "[N-]=[N+]=Nc1ccccc1C[C@]1(C(=O)O)N=C(c2ccc(OCCCO)cc2)O[C@H]1c1ccccc1N=[N+]=[N-]"
  categoryLabel: "true (1)"

--- query ---
Decide: is the reported value of z-score for "C=C(/C(=C/C[C@H](OC(=O)c1ccncc1)c1cccc(OCCO)c1)c1cnc2ccccc2c1)C(C)C" equal to or greater than 0.8?
false (0)

###

# targetSystem: Calmodulin-1 (Homo sapiens) (UniProt P0DP23)
# assayComment: CALM1 binders on microarrays, EGTA buffer, profiling panel, biochemical, small-molecule microarray, Cy5-labelled CALM1 (AID 1111);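 also: labelled calmodulin applied in Tris saline Tween buffer holding calcium plus EGTA and DTT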
# conditionContext: Cy5-CALM1 binding fluorescence, higher = more signal
Give Yes when the value for composite z-score is at least 0.5. Give No when it is less.

Solved entries:
- compound: "COc1ccc([Si](C)(C)[C@@H]2[C@@H](CCn3cc([C@H](O)c4ccccc4)nn3)O[C@]3(C(=O)N(c4ccccc4)c4ccccc43)[C@H]2C)cc1"
  categoryLabel: "No"
- compound: "COCCOC(=O)N1C(=O)[C@@]2(c3cc(C#CCC(C(=O)OC)C(=O)OC)ccc31)[C@H](c1ccc(OCCO)cc1)N1[C@H](c3ccccc3)[C@H](c3ccccc3)OC(=O)[C@H]1[C@@H]2C(=O)Nc1nc2ccccc2s1"
  categoryLabel: "Yes"
- compound: "C=C(/C(=C/C[C@H](OC(=O)c1ccncc1)c1ccccc1OCCO)c1cnc2ccccc2c1)C(C)C"
  categoryLabel: "Yes"

Decide: is the reported value of composite z-score for CC(C)N1CC=CC23O[C@@H]4/C=C\CCCOC(=O)C4[C@H]2C(=O)N(CCCCCCO)[C@@H]3C1=O (some centres not stated) equal to or greater than 0.5?
No

Queued: "CCOC(=O)C1=C[C@@H](C(C)(C)C)N(S(=O)(=O)c2ccc(C)cc2)[C@H]1c1ccc(C)cc1"
Yes

Queued: "COCC(=C=CC[C@@H](O)c1ccc(OCCO)cc1)CCO"
No

Queued: "COCCOC(=O)N1C(=O)[C@@]2(c3cc(C#CCNC(N)=O)ccc31)[C@H](c1ccc(O)cc1)N1[C@H](c3ccccc3)[C@H](c3ccccc3)OC(=O)[C@H]1[C@@H]2C(N)=O"
No

Queued: "COCCOC(=O)N1C(=O)[C@@]2(c3cc(C#Cc4ccc(OC)cc4)ccc31)[C@H](c1ccc(OCCO)cc1)N1[C@H](c3ccccc3)[C@H](c3ccccc3)OC(=O)[C@H]1[C@@H]2C(=O)Nc1nc2ccccc2s1"
Yes

Queued: CC(C)=CCCC(C)=CC(O)C1C=CC2C(=O)N(c3ccccc3)C(=O)C2N1Nc1ccccc1F (configuration not stated)
Yes

Queued: "COC(=O)[C@@]1(Cc2ccc(F)cc2)[C@H]2c3cc(C(=O)N(C)C)n(Cc4c(CO)[nH]cc(C)c4=O)c3C[C@H]2CN1C(=O)c1ccccc1"
No
